# test-protocol: Aqueous solubility of the compound in simulated gastric fluid at pH 1.5
# Format: ADME
# measurement-parameters: simulated gi fluid
measurement-type: solubility

Examples with answers:
CCCS(=O)(=O)Nc1ccc(F)c(C(=O)c2c[nH]c3ncc(-c4ccc(NS(C)(=O)=O)cc4)cc23)c1F Insoluble
CCCS(=O)(=O)Nc1ccc(F)c(C(=O)c2c[nH]c3ncc(-c4ccc(N5CCCC5)nc4)cc23)c1F Insoluble
N#Cc1cnc2[nH]cc(C(=O)c3c(F)ccc(NS(=O)(=O)c4ccccc4F)c3F)c2c1 Soluble
CCCS(=O)(=O)Nc1ccc(F)c(C(=O)c2c[nH]c3ncc(-c4ccc(OCCCN5CCOCC5)nc4)cc23)c1F Soluble
CCCS(=O)(=O)Nc1ccc(F)c(C(=O)c2c[nH]c3ncc(-c4ccc(S(=O)(=O)N5CCOCC5)cc4)cc23)c1F Insoluble

What the record says about COc1cnc2[nH]cc(C(=O)c3c(F)ccc(NS(=O)(=O)c4ccccc4F)c3F)c2c1 : solubility is Insoluble

What the record says about N#Cc1cnc2[nH]cc(C(=O)c3cccc(NS(=O)(=O)c4ccccc4F)c3F)c2c1 : solubility is Soluble

What the record says about CCCS(=O)(=O)Nc1ccc(F)c(C(=O)c2c[nH]c3ncc(-c4ccc(OCCN5CCOCC5)nc4)cc23)c1F : solubility is Soluble
